Consider compounds characterized by their IC50 with Protein arginine N-methyltransferase 3 (Homo sapiens, UniProt O60678).
Sequence (O60678 whole entry): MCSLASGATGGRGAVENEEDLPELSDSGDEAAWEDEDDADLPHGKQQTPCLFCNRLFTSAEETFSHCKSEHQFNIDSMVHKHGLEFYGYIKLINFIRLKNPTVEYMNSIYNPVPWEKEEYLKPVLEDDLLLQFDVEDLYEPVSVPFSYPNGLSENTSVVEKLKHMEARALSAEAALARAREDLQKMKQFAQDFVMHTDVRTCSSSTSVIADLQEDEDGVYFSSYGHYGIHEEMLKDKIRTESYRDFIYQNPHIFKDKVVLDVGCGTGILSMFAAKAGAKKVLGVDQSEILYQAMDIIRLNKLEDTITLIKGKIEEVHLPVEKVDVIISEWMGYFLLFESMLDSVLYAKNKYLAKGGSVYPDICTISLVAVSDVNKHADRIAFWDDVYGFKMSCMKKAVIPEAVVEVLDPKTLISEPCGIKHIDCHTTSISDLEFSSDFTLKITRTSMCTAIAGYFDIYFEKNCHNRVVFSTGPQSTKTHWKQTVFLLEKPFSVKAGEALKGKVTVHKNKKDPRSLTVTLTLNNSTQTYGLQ

>  <COMPOUND>
CC(=O)N1CCC(Nc2cc(C(=O)NC[C@H](O)CN3CCc4ccccc4C3)ncn2)CC1

>  <IC50>
> 10 µM

$$$$
>  <COMPOUND>
CC(=O)N1CC2(CC(Nc3cc4c(cn3)C3(CC3)CN(C[C@H](O)CN3CCc5ccccc5C3)C4=O)C2)C1

>  <IC50>
> 10 µM

$$$$

For the next question, use this compound.
Data point: C[S+](CC[C@H](N)C(=O)[O-])C[C@H]1O[C@@H](n2cnc3c(N)ncnc32)[C@H](O)[C@@H]1O (stereo partly drawn) ; IC50 = 5.17 µM
